Header: pKi / Adenosine receptor A1 (Rattus norvegicus, UniProt P25099) / multiple publications
pKi: −log10 of the molar value.

Consider the reported pKi for these compounds:
Compound	pKi
Nc1nc(C#CCO)cn2nc(-c3ccco3)nc12	< 6.30
Nc1cc(N2CCN3C[C@@H](COc4ccccc4)CC[C@H]3C2)nc2nc(-c3ccco3)nn12 (racemic)	< 6.30
Nc1nc(C(=O)N2CCOCC2)cn2nc(-c3ccco3)nc12	< 6.60

Qu. Recall the recorded pKi for "Nc1ncnc2c1ncn2[C@@H]1O[C@H](CO)[C@@H](N)[C@H]1O" with Adenosine receptor A1 (Rattus norvegicus, UniProt P25099) and state it.
Sequence (P25099 whole entry): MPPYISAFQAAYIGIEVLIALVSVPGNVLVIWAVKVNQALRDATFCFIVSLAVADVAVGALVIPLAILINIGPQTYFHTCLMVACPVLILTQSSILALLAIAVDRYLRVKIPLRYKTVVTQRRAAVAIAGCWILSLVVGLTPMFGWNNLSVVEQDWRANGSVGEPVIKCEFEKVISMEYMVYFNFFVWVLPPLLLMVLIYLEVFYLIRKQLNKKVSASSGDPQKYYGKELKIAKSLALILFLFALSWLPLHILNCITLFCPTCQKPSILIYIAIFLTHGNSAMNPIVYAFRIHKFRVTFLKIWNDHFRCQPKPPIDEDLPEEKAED
Ans. < 5.00

Qu. Recall the recorded pKi for "Nc1nc(NC[C@H]2CCCN2Cc2c(Cl)cncc2Cl)nc2nc(-c3ccco3)nn12" with Adenosine receptor A1 (Rattus norvegicus, UniProt P25099) and state it.
Ans. < 6.60
